Assay Notes: Selectivity index, ratio of CC50 for African green monkey Vero cells to MIC for Mycobacterium tuberculosis H37Ra […]
Assay type: toxicity, cell-based
Test Context: read-out: Selectivity Index
Readout Kind: selectivity ratio
Keep the answer to the number alone.

Quick one: selectivity ratio of N/C(=N/NC(CC(=O)c1ccc(-n2ccnc2)cc1)c1ccc(Br)cc1)c1ccccn1 (stereo unspecified) ?
18

----------
Test system: Mycobacterium marinum
Assay Notes: Antimycobacterial activity against Mycobacterium marinum CIP 6423 after 7 days by resazurin microtiter assay
Format: functional
Test Context: CIP 6423, 168 h
Readout Kind: MIC (µM)
Report as a plain number; the unit µM is understood.

Quick one: MIC of N/C(=N/NC(CC(=O)c1ccc(-n2ccnc2)cc1)c1ccc(Cl)cc1)c1ccccn1 (stereo not given) ?
18

Quick one: MIC of N/C(=N/NC(CC(=O)c1ccc(-n2ccnc2)cc1)c1ccc(F)cc1)c1ccccn1 (stereo not given) ?
18.7

Quick one: MIC of N/C(=N/NC(CC(=O)c1ccc(-n2ccnc2)cc1)c1ccccc1Br)c1ccccn1 (stereo not given) ?
16.3

Quick one: MIC of N/C(=N/NC(CC(=O)c1ccc(-n2ccnc2)cc1)c1ccccc1F)c1ccccn1 (stereo not given) ?
18.7

Quick one: MIC of N/C(=N/NC(CC(=O)c1ccc(-n2ccnc2)cc1)c1ccccc1)c1ccccn1 (stereo not given) ?
19.5

Quick one: MIC of N/C(=N/NC(CC(=O)c1ccc(-n2ccnc2)cc1)c1cccc(Cl)c1)c1ccccn1 (stereo not given) ?
18

Quick one: MIC of N/C(=N/NC(CC(=O)c1ccc(-n2ccnc2)cc1)c1ccccc1Cl)c1ccccn1 (stereo not given) ?
18

Quick one: MIC of N/C(=N/NC(CC(=O)c1ccc(-n2ccnc2)cc1)c1ccccc1[N+](=O)[O-])c1ccccn1 (stereo not given) ?
35.1

Quick one: MIC of N/C(=N/NC(CC(=O)c1ccc(-n2ccnc2)cc1)c1ccc(Cl)cc1Cl)c1ccccn1 (stereo not given) ?
33.3

Quick one: MIC of NNC(=O)c1ccncc1 [ISONIAZID] ?
116
